Recorded values, source ChEMBL document CHEMBL1156829.

protocol: NOVARTIS: Cytotoxicity against human hepatocellular carcinoma cell line (Huh7)
Format: toxicity, cell-based, Huh-7
recordedConditions: Huh7 cells (hepatocellular carcinoma cell line)
Please go through the items and note down their CC50.

Lab note: Cc1ccc(-c2c[n+](Cc3ccc(Cl)cc3)c3n2CCC3)cc1 gave CC50 of > 75.7 µM

Lab note: Cc1cc(C)c2c(c1)-c1c(ssc1=S)C(C)(C)N2C(=O)COc1nc2ccccc2s1 gave CC50 of > 100 µM

Lab note: COc1ccc(C(NC(=O)c2cccc(OC)c2)c2cc(Cl)c3cccnc3c2O)cc1 (centres undefined) gave CC50 of > 100 µM

Lab note: O=C(/C=C/c1c[nH]cn1)N1CCC(n2c(CC3CCCC3)nc3cccnc32)CC1 gave CC50 of > 10 µM

----------
System: Plasmodium falciparum
protocol: NOVARTIS: Inhibition of Plasmodium falciparum 3D7 (drug-susceptible) proliferation in erythrocyte-based infection assay
Type: functional, organism-based
recordedConditions: Plasmodium falciparum, 3D7
pEC50: −log10 of the molar value.
Please go through the items and note down their pEC50.

// returns pEC50 for NC(=O)c1ccc2[nH]c3c(c2c1)CCCC3 with Plasmodium falciparum; value = < 4.90

// returns pEC50 for COc1cc2nc(CN(C)C(C)c3cccs3)nc(N3CCCC3)c2cc1OC (stereo unspecified) with Plasmodium falciparum; value = < 4.90

// returns pEC50 for CN(C)c1ccc(/C=C2\N=C(c3ccccc3F)OC2=O)cc1 with Plasmodium falciparum; value = < 5.90

// returns pEC50 for COCCNC(=O)CN1C(=O)CC(C)(C)Sc2ccccc21 with Plasmodium falciparum; value = < 5.90

// returns pEC50 for CCCCCCOC(=O)C1=C(C)NC(=O)NC1c1ccccc1F (stereo unspecified) with Plasmodium falciparum; value = < 5.17

// returns pEC50 for CCN(CC)c1ccc2c(c1)OC(N)=C(C#N)C2c1ccsc1 (stereo unspecified) with Plasmodium falciparum; value = < 5.02

----------
System: Plasmodium falciparum
protocol: NOVARTIS: Inhibition of Plasmodium falciparum W2 (drug-resistant) proliferation in erythrocyte-based infection assay
Assay type: functional, organism-based
recordedConditions: Plasmodium falciparum, W2; read-out: EC50
pEC50: −log10 of the molar value.
Output schema: class label derived from pEC50. Mapping: low class: < 6; middle class: ≥ 6 and < 7; high class: ≥ 7

Qu. Which pEC50 band matches CCCCCCCSc1nsc(NC(=O)CCC)n1 ?
Ans. high class

Qu. Which pEC50 band matches CCCN(CCC)CC(O)COc1ccccc1C(=O)Nc1ccccc1 (stereo not given) ?
Ans. high class

Qu. Which pEC50 band matches Fc1ccc(-c2c[n+](Cc3ccc(Cl)cc3)c3n2CCC3)cc1 ?
Ans. middle class

Qu. Which pEC50 band matches COC(=O)C[S+]([O-])c1ccccc1 (stereo not given) ?
Ans. middle class

Qu. Which pEC50 band matches Cc1ccccc1/C=C1/SC(=Nc2ccccc2)NC1=O ?
Ans. low class

Qu. Which pEC50 band matches O=C(C[n+]1cc(-c2ccc(F)cc2)n2c1CCC2)Nc1ccc(Cl)cc1 ?
Ans. low class

Qu. Which pEC50 band matches COc1cc(-c2nc3ccc(N4CCN(C)CC4)cc3[nH]2)cc(OC)c1OC ?
Ans. low class

Qu. Which pEC50 band matches COc1cc(NC(C)CCCN(Cc2ccccc2OC)C(=O)C(C)C)c2ncccc2c1 (stereo not given) ?
Ans. middle class

Qu. Which pEC50 band matches c1ccc(-c2nc3cc4ccccc4cc3nc2-c2ccsc2)cc1 ?
Ans. low class
